PROCEDURE TEXT: AUC (0 to infinity) in Sprague-Dawley rat plasma at 10 mg/kg, po
Assay type: ADME, organism-based
Set-up: time infinity, dose 10 mg/kg, route oral
Readings of AUC(0-inf) for the listed molecules
OBSERVATION TYPE: AUC(0-inf) (ng·h/mL)

[[record]]
mol = "Cc1ccccc1[C@H](CC(=O)O)NC(=O)c1cc(OC[C@H](O)C(C)(C)C)n(-c2ccccc2F)n1"
reading_unit = "ng·h/mL"
result_value = 5300

[[record]]
mol = "CC(C)(C)[C@@H](O)COc1cc(C(=O)N[C@@H](CC(=O)O)c2ccc(Cl)cc2Cl)nn1-c1ccccc1F"
reading_unit = "ng·h/mL"
result_value = 9300

[[record]]
mol = "COc1cc(C(=O)N[C@@H](CC(=O)O)c2ccccc2C)nn1-c1ccccc1F"
reading_unit = "ng·h/mL"
result_value = 130000


---

TEST TARGET: Lysosomal protective protein (Homo sapiens)
Sequence (P10619 29-326 limits assumed): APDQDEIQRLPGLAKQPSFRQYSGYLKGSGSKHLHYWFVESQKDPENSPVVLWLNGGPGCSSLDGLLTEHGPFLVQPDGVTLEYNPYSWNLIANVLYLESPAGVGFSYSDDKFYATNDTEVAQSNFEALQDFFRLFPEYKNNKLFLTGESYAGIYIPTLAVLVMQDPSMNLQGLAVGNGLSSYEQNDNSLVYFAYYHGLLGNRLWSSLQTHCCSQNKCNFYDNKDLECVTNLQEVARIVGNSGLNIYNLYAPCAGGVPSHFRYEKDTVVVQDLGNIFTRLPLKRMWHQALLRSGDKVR
Sequence (P10619 327-480 limits assumed): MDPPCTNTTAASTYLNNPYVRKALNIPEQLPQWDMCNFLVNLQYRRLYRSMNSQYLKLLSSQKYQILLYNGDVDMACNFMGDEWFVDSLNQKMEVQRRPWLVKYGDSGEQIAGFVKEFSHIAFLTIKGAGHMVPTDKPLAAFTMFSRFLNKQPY
PROCEDURE TEXT: Inhibition of human recombinant Myc-His10-tagged cathepsin A expressed in baculovirus infected Sf9 cells using BodipyFL labeled bradykinin as substrate incubated for 15 mins prior to substrate addition measured after 15 mins by fluorimetric analysis
Readings of IC50 for the listed compounds
OBSERVATION TYPE: IC50 (µM)

[[record]]
compound = "COc1cn(-c2ccccc2)nc1C(=O)N[C@@H](CC(=O)O)c1ccccc1C"
observation_type = "IC50"
result_value = 0.1

[[record]]
compound = "Cc1ccccc1[C@H](CC(=O)O)NC(=O)c1cc(=O)n(-c2cccc(F)c2)[nH]1"
observation_type = "IC50"
result_value = 0.059

[[record]]
compound = "Cc1ccc(F)cc1C(CC(=O)O)NC(=O)c1cc(=O)n(-c2ccccc2F)[nH]1 (racemic)"
observation_type = "IC50"
result_value = 0.076

[[record]]
compound = "CC(C)(C)[C@H](O)COc1cc(C(=O)N[C@@H](CC(=O)O)c2ccc(Cl)cc2Cl)nn1-c1ccccc1F"
observation_type = "IC50"
result_value = 0.07

[[record]]
compound = "Cc1ccccc1[C@H](CC(=O)O)NC(=O)c1cc(=O)n(-c2ccccc2Cl)[nH]1"
observation_type = "IC50"
result_value = 0.057

[[record]]
compound = "Cc1ccccc1[C@@H](CC(=O)O)NC(=O)c1cc(=O)n(-c2ccccc2)[nH]1"
observation_type = "IC50"
result_value = 7.8

[[record]]
compound = "Cc1ccc(C)c(-n2[nH]c(C(=O)NC(CC(=O)O)c3ccc(F)cc3)cc2=O)c1 (racemic)"
observation_type = "IC50"
result_value = 5.38

[[record]]
compound = "O=C(O)C[C@H](NC(=O)c1cc(=O)n(-c2ccccc2F)[nH]1)c1ccccc1C(F)(F)F"
observation_type = "IC50"
result_value = 0.375

[[record]]
compound = "CC(C)(C)[C@@H](O)COc1cc(C(=O)N[C@@H](CC(=O)O)c2ccc(Cl)cc2Cl)nn1-c1ccccc1F"
observation_type = "IC50"
result_value = 0.05

[[record]]
compound = "COc1cc(C(=O)N[C@@H](CC(=O)O)c2ccccc2C)nn1-c1ccccc1F"
observation_type = "IC50"
result_value = 0.026

[[record]]
compound = "O=C(O)CC(NC(=O)c1cc(=O)n(-c2ccccc2)[nH]1)c1ccc(Oc2ccccc2)cc1 (racemic)"
observation_type = "IC50"
result_value = 0.2

[[record]]
compound = "Cc1ccccc1[C@H](CC(=O)O)NC(=O)c1cc(OCC(=O)C(C)(C)C)n(-c2ccccc2F)n1"
observation_type = "IC50"
result_value = 0.003

[[record]]
compound = "Cc1ccccc1[C@H](CC(=O)O)NC(=O)c1cc(=O)n(-c2ccc(F)cc2)[nH]1"
observation_type = "IC50"
result_value = 0.087

[[record]]
compound = "CCOc1cc(C(=O)N[C@@H](CC(=O)O)c2ccccc2C)nn1-c1ccccc1F"
observation_type = "IC50"
result_value = 0.015

[[record]]
compound = "Cc1ccccc1[C@H](CC(=O)O)NC(=O)c1cc(=O)n(-c2ccccc2)[nH]1"
observation_type = "IC50"
result_value = 0.07

[[record]]
compound = "Cc1ccc(C)c(-n2[nH]c(C(=O)NC(CC(=O)O)c3ccc(-c4ccccc4)cc3)cc2=O)c1 (racemic)"
observation_type = "IC50"
result_value = 0.803

[[record]]
compound = "CC(C)(C)C(=O)COc1cc(C(=O)N[C@@H](CC(=O)O)c2ccc(Cl)cc2Cl)nn1-c1ccccc1F"
observation_type = "IC50"
result_value = 0.06

